Source: patent US20230279128A1

Target: T1, extracellular domain of mIFNgR2 (mouse)
T1 construct: also called mIFNgR2 ECD; mouse IFNgR2 extracellular domain
T1 chain: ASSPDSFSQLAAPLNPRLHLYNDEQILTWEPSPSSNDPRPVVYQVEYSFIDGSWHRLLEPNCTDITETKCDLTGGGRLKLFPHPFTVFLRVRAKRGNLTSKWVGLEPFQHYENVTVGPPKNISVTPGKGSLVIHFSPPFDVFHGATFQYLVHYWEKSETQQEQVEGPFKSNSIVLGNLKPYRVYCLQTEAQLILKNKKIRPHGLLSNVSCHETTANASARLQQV
Experiment: flow cytometry, cross-reactivity
Observed Property: binding result

DR957 (VHH) VHH: QVQLVESGGGLVQAGGSLRLSCAPSGRTFSSYAMAWFRQPPGKEREFVAAITVSGASTYYADSVKGRFTISRDNAKNSMYLQMNSLKPEDTAVYYCAAGGPGTIFPDYDYWGQGTQVTVSS ... binds
DR945 (VHH) VHH: LVESGGGLVQLVQAGGSLRLSCAASGRTFSGYNMGWFRQAPGKEREFVAAIAWAGSRTYYTDSVKGRFTISRDNAKNTMYLQMNTLRPEDTAVYYCAAHDETYYRLDRVDLYTHWGQGTQVTVSS ... binds
DR927 (VHH) VHH: QVQLVESGGGLVQAGGSLRLSCAASGRTFTSYAMNWFRQAPGKEREFVAAISWSSGNTYVADSVKGRFAISRDKAKNTMYLQMNSLAPEDTAVYYCAATTIATMSDEYTYWGQGTQVTVSS ... binds
DR935 (VHH) VHH: QVQLVESGGGLVQAGGSLRLSCAASGRAFSTYALGWFRQAPGKEREFIAAISRGGGSTDYADSVKGRFTISRDNAKSTVYLQMNSLKPEDTAVYYCAARSYSSSYYYSQYEYDYWGQGTQVTVSS ... binds
